The measured values listed here are drawn from paper PMC6429502.

Target: AChE (Electrophorus electricus, UniProt O42275)
Sequence (O42275 24-633): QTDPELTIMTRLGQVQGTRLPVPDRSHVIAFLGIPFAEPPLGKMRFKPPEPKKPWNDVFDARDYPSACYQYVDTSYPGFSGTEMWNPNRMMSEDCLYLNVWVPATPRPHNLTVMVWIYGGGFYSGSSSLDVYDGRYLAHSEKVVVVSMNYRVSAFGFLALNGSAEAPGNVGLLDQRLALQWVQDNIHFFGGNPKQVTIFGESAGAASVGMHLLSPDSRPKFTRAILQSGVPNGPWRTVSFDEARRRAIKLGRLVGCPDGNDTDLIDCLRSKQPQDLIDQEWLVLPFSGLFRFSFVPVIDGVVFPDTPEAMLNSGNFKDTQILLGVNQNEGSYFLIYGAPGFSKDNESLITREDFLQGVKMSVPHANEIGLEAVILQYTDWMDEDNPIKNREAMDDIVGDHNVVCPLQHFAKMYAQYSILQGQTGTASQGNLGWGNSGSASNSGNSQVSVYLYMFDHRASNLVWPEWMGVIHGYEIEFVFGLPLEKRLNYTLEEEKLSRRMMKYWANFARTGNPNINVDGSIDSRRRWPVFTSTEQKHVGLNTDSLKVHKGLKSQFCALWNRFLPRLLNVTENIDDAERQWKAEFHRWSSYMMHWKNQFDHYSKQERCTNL
Assay: AChE inhibition, modified Ellman's method
Assay type: biochemical
Settings: 10^−4 M
% Inhibition AChE below 30% gives not met; % Inhibition AChE at or above it gives met.

Please tell me: is the compound Cn1c(SCC(=O)c2ccc(Br)cc2)nnc1-c1ccc(-c2nc3cc(Cl)ccc3[nH]2)cc1 at or over 30% in terms of % Inhibition AChE?
not met

Is the recorded value of % Inhibition AChE equal to or greater than 30% for this compound? Cn1c(SCC(=O)c2ccc(C#N)cc2)nnc1-c1ccc(-c2nc3cc(F)ccc3[nH]2)cc1
met

Does % Inhibition AChE meet or surpass 30% for Cc1ccc(C(=O)CSc2nnc(-c3ccc(-c4nc5cc(Cl)ccc5[nH]4)cc3)n2C)cc1 ?
not met

Quick check: does CCn1c(SCC(=O)c2ccc(C)cc2)nnc1-c1ccc(-c2nc3cc(F)ccc3[nH]2)cc1 have % Inhibition AChE greater than or equal to 30%?
not met

I'd appreciate it if you could say whether Cc1ccc(C(=O)CSc2nnc(-c3ccc(-c4nc5cc(F)ccc5[nH]4)cc3)n2C)cc1 has % Inhibition AChE at least equal to 30%.
not met

Record Cn1c(SCC(=O)c2ccc(Br)cc2)nnc1-c1ccc(-c2nc3cc(F)ccc3[nH]2)cc1 ; criterion: % Inhibition AChE no lower than 30%. Met?
not met

Quick check, % Inhibition AChE >= 30%? CCn1c(SCC(=O)c2ccc(C#N)cc2)nnc1-c1ccc(-c2nc3cc(Cl)ccc3[nH]2)cc1
met

Textbook exercise: given the entry CCn1c(SCC(=O)c2ccc(Br)cc2)nnc1-c1ccc(-c2nc3cc(Cl)ccc3[nH]2)cc1 , state whether its % Inhibition AChE is greater than or equal to 30%.
not met

Please check the record CCn1c(SCC(=O)c2ccc(C#N)cc2)nnc1-c1ccc(-c2nc3cc(F)ccc3[nH]2)cc1 and state if its % Inhibition AChE is at or above 30%.
met

Dear colleague, could you confirm whether CCn1c(SCC(=O)c2ccc(C)cc2)nnc1-c1ccc(-c2nc3cc(Cl)ccc3[nH]2)cc1 has % Inhibition AChE at or above 30%?
not met

Determine whether this compound has % Inhibition AChE no lower than 30%: Cn1c(SCC(=O)c2ccc(C#N)cc2)nnc1-c1ccc(-c2nc3cc(Cl)ccc3[nH]2)cc1
met

* * *

Consider the following compounds; for each one, report its % Inhibition of AChE.
Biological target: UniProt:O42275
Assay: AChE inhibition, modified Ellman's method
Type: biochemical
Settings: 10^−7 M
Answer format: numeric, % implied, no suffix.

Using the record for Cn1c(SCC(=O)c2ccc(O)c(O)c2)nnc1-c1ccc(-c2nc3cc(F)ccc3[nH]2)cc1 , report its % Inhibition of AChE.
48.11

Find the recorded % Inhibition of AChE belonging to CCn1c(SCC(=O)c2ccc(O)c(O)c2)nnc1-c1ccc(-c2nc3cc(F)ccc3[nH]2)cc1 and report it.
47.83

Entry Cn1c(SCC(=O)c2ccc(O)c(O)c2)nnc1-c1ccc(-c2nc3cc(Cl)ccc3[nH]2)cc1 has what % Inhibition of AChE?
67.18

# % Inhibition of AChE lookup, item CCn1c(SCC(=O)c2ccc(O)c(O)c2)nnc1-c1ccc(-c2nc3cc(Cl)ccc3[nH]2)cc1
65.32
